Each record here notes measured IC50.
Molecular target: Tyrosinase (Homo sapiens)
Sequence (P14679 whole entry): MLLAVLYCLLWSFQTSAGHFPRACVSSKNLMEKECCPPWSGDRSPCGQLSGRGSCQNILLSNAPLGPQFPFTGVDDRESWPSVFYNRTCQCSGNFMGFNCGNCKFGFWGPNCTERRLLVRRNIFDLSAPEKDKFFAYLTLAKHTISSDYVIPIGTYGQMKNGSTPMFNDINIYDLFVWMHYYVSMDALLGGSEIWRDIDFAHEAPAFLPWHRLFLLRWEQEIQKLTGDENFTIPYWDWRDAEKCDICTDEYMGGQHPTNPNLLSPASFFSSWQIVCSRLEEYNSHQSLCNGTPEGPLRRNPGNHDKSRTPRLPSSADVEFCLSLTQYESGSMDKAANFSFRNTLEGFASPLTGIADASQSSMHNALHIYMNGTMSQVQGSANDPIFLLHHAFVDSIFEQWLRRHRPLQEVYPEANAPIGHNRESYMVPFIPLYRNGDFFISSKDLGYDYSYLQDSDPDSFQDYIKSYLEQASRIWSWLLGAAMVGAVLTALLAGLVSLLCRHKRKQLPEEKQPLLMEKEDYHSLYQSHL
Test: Inhibition of tyrosinase in neonatal human epidermal melanocytes
Design: species or system Melanocyte
Numeric answer only, unit µM assumed.

{"compound": "O=C(O)/C=C/c1ccc(O)cc1", "system name": "Tyrosinase (Homo sapiens)", "units text": "µM", "IC50": 2}

Turning to the following compound.
Please fill in: IC50 reported for COc1cc(/C=C/C(=O)NCCc2ccc(O)c(O)c2)ccc1O [N-TRANS-FERULOYLDOPAMINE] = 50

----------
Molecular target: Tyrosinase (Homo sapiens)
Assay: Inhibition of human tyrosinase using L- DOPA as substrate by MBTH based assay
endpoint: pKi
Notebook: values listed as pKi are -log10 of the concentration (mol/L).

See these solved cases before continuing.
{"structure smiles string": "CCCCCSCc1cc(=O)c(O)co1", "quantitative result": 4.34}
{"structure smiles string": "CCSCc1cc(=O)c(O)co1", "quantitative result": 4.72}
{"structure smiles string": "CCCSCc1cc(=O)c(O)co1", "quantitative result": 4.57}
{"structure smiles string": "CCCn1cc(O)c(=O)cc1C", "quantitative result": 4.12}
{"structure smiles string": "CCCCn1cc(O)c(=O)cc1C", "quantitative result": 4.00}

Sure, the documented pKi for CC(C)SCc1cc(=O)c(O)co1 is 4.30

Entry under test: CSCc1cc(=O)c(O)co1 . Its pKi was 4.34
